Hello, the source for this data is patent US20050215551A1, in case you need it.

Target: UniProt:P49146
Sequence (P49146 whole entry): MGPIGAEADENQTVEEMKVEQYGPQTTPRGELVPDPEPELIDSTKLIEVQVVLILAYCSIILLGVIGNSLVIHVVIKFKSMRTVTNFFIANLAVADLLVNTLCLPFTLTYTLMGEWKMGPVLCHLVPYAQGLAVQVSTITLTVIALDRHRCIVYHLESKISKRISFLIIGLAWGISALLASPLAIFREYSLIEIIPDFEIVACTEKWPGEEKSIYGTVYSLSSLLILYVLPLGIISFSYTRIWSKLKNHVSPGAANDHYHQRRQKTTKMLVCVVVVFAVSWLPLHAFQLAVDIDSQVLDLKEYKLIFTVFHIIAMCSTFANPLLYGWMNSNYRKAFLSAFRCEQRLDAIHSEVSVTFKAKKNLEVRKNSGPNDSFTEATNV
Assay: Receptor binding Neuropeptide Y2
Conditions: radioligand [125I]-PYY, read-out: Ki(nM) Compound 1
Observed property: Ki

(Q) Which Ki reading was recorded for the compound Nc1cc2cccc(N3CCNCC3)c2oc1=O [Compound 1] ?
(A) > 1000 nM

###

Target: PACAP (Rattus norvegicus, UniProt P32215)
Sequence (P32215 20-523): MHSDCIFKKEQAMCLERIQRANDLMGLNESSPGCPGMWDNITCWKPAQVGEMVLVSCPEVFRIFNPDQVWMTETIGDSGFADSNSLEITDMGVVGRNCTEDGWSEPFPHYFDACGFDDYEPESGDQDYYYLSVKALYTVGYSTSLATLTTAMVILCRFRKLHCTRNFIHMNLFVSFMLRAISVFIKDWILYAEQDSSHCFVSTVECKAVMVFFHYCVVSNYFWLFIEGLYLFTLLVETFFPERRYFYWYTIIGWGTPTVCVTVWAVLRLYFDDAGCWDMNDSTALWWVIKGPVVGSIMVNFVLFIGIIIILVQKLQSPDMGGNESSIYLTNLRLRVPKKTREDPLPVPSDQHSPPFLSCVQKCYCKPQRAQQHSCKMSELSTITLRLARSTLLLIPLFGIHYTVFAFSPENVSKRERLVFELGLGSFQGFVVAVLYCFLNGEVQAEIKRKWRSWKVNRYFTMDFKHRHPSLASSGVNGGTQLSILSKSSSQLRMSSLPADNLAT
Test: Receptor binding PACAP
Settings: radioligand [125I]-PACAP 1-27, read-out: Ki(nM) Compound 1
Observed property: Ki

(Q) Kindly state the measured Ki obtained for Nc1cc2cccc(N3CCNCC3)c2oc1=O with PACAP (Rattus norvegicus, UniProt P32215).
(A) > 1000 nM

###

Target: CCR1 (Homo sapiens, UniProt P32246)
Sequence (P32246 whole entry): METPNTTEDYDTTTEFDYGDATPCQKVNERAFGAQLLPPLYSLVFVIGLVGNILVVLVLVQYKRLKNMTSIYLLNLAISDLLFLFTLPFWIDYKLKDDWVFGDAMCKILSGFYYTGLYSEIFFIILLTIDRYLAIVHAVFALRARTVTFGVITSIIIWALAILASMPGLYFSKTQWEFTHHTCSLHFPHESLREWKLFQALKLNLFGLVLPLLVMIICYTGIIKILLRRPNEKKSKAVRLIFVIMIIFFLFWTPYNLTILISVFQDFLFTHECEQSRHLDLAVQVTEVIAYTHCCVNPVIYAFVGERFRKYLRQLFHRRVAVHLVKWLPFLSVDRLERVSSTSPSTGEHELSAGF
Test: Receptor binding CCR1
Conditions: radioligand [125I]-MIP-1a, read-out: Ki(nM) Compound 1
Observed property: Ki

(Q) Kindly state the measured Ki obtained for Nc1cc2cccc(N3CCNCC3)c2oc1=O with CCR1 (Homo sapiens, UniProt P32246).
(A) > 1000 nM

###

Target: nociceptin (ORL1) (Homo sapiens, UniProt P41146)
Sequence (P41146 whole entry): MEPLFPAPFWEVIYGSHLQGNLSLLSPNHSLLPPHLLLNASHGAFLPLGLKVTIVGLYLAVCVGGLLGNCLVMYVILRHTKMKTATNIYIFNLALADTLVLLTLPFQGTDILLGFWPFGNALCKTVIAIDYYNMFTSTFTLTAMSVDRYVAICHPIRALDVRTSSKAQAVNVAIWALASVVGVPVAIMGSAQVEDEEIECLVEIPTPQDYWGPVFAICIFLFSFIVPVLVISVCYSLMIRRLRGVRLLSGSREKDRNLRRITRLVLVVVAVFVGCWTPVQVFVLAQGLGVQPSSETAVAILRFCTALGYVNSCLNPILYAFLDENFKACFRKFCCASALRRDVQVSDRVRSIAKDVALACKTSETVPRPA
Experiment: Receptor binding nociceptin (ORL1)
Conditions: radioligand [3H]-nociceptine, read-out: Ki(nM) Compound 1
Observed property: Ki

(Q) Kindly state the measured Ki obtained for Nc1cc2cccc(N3CCNCC3)c2oc1=O [Compound 1] with nociceptin (ORL1) (Homo sapiens, UniProt P41146).
(A) > 1000 nM

###

Biological target: LTD4 (Cavia porcellus, UniProt Q2NNR5)
Sequence (Q2NNR5 1-340): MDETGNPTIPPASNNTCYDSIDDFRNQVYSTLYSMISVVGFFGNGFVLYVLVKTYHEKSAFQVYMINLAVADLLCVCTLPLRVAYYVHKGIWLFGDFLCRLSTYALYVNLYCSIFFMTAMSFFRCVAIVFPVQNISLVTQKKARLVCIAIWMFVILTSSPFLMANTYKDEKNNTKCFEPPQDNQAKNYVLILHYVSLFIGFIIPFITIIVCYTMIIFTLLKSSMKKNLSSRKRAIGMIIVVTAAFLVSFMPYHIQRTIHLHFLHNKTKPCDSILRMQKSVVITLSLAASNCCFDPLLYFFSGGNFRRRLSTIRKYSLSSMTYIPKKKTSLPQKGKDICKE
Experiment: Receptor binding LTD4
Details: radioligand [3H]-LTD4; guinea pig; read-out: Ki(nM) Compound 1
Observed property: Ki

(Q) Which Ki reading was recorded for the compound Nc1cc2cccc(N3CCNCC3)c2oc1=O ?
(A) > 10000 nM
